- target: Mitochondrial complex I; NADH oxidoreductase (Bos taurus, UniProt P25708+P52505)
- Sequence (P25708 21-464 limits assumed, other chains not shown): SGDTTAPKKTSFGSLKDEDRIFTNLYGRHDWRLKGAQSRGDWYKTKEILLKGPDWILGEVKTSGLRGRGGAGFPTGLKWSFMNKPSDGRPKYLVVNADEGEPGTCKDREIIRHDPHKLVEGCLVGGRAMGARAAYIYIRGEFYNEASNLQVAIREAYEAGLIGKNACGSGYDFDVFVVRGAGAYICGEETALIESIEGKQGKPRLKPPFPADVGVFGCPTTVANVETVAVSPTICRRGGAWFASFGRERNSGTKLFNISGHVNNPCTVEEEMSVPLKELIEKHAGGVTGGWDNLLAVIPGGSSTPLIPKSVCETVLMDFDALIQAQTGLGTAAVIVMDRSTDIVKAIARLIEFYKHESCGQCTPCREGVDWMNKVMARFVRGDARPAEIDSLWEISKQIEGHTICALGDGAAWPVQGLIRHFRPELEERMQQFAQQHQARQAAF
- method-summary: Inhibition of NADH-ubiquinone oxidoreductase assessed as NADH oxidase activity in bovine heart submitochondrial particles
measured-metric: IC50

Looking for the measured IC50 of CCCC1(O)C(=O)C(C)C(=O)N=C1C=CC(C)C/C=C/C(C)C (configuration not stated) [IROMYCIN E] , can you help?
> 25.3 µM

Name the reported IC50 value associated with the compound CCCC1C(=O)C(C)(O)C(=O)N=C1C=CC(C)C/C=C/C(C)C (configuration not stated) [IROMYCIN F]
> 25.3 µM
